Attribution: paper doi:10.1101/718155

- TARGET DESC: T1, S100B (human, UniProt P04271 1-92)
- T1 chain: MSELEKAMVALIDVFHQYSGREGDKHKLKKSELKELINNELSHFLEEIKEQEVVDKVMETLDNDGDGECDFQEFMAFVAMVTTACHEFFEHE
- MEASUREMENT PROTOCOL: ITC; 310 K; second site
I'd appreciate it if you could supply pKd values for the items below.
Please report pKd as the negative decimal logarithm of the molar concentration, giving only the number.

[Q] Give the measured pKd of TRTKIDWNKILS [CapZ (265-276) peptide] .
[A] 6.03

[Q] Similarly, NQVRPKLPLLKILHAAGAQ [MDM4 (25-43) peptide] ?
[A] 6.20
